# SYSTEM TESTED: cynomolgus beta klotho / human FGFR1c receptor complex on cells (cynomolgus monkey (Macaca …))
# Sequence (chain, as listed by the source limits assumed, chain 1 of 2): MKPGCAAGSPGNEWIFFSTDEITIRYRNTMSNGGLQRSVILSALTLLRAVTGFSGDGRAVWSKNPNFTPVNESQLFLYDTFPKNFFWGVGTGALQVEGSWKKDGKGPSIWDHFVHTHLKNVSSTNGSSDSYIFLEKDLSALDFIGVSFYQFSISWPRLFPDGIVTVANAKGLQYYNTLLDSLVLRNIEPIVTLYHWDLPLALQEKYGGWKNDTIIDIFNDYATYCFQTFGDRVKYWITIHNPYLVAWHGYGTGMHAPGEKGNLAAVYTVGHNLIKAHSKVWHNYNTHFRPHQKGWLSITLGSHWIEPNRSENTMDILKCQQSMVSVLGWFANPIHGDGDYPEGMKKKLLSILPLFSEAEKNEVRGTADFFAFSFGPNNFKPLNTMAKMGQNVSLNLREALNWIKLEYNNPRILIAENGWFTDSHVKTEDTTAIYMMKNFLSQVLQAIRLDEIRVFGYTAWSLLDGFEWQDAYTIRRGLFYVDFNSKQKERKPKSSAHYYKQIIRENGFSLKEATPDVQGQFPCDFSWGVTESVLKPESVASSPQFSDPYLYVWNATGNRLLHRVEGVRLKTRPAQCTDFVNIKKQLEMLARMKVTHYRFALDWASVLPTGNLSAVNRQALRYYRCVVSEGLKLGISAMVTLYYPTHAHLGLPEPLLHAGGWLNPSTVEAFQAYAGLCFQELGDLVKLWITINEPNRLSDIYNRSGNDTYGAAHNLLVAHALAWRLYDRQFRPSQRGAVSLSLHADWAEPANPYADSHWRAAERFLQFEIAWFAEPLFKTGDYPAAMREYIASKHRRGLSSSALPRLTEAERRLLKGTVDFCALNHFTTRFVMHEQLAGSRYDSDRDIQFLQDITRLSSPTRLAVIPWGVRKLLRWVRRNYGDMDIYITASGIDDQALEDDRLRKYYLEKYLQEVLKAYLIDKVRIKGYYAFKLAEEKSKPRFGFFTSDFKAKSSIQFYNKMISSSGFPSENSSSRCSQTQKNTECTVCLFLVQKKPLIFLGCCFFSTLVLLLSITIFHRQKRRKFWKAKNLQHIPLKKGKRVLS
# Sequence (chain, as listed by the source limits assumed, chain 2 of 2): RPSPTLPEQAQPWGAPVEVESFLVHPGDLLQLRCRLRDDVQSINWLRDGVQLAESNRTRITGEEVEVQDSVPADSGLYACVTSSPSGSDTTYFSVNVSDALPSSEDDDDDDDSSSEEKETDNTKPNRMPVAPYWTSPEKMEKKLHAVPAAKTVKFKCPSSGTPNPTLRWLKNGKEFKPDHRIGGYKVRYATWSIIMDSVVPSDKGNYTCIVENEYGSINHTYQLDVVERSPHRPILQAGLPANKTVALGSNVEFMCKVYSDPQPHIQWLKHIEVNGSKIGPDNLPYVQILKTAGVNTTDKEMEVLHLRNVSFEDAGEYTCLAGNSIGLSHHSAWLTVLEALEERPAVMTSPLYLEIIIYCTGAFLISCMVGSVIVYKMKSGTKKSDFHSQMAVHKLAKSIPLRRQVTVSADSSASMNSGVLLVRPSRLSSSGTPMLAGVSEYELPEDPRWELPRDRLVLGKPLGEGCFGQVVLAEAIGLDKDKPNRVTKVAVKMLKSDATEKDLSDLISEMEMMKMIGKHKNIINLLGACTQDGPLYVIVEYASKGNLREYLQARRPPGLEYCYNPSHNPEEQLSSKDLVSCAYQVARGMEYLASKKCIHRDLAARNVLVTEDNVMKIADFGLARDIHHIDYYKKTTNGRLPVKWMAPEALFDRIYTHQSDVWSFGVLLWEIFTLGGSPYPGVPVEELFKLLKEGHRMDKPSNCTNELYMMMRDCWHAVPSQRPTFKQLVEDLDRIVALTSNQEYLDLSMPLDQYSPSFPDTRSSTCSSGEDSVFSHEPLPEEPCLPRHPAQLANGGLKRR
# METHOD DESCRIPTION: cell-based or functional assay
METRIC: HEK293 cynoKLB/R1c reporter assay EC50, Experiment - B

Query block: Return HEK293 cynoKLB/R1c reporter assay EC50, Experiment - B (reported value) for this binder: antibody 3L3 (antibody, V domains shown, Murine monoclonal antibody) VH: QVQPQESGPELVKPGTLVKISCKASGYTFTSYDINWVKQRPGQGLEWIGWIYPGDGSPKYDEKFKGKATLTADKSSSTAYMQLSSLTSENSAVYFCARSDYYGSRSFVYWGQGTLVTVSA VL: DIVLTQSPASLAVSLGQRATISCRASKSVSTSGYSYVHWYQQKPGQPPKLLIYLASNLESGVPARFSGRGSGTDFTLNIHPVEEEDAATYYCQHSGELPYTFGGGTKLEIK
Result block: 1670 pM
